- Experimental target: pooled human IgG
Measured attribute: Enzyme Activity Endpoint Assay (purified): Fab′2 (ng/µL)

- Protein: "PRT-630 (protein) MQITSVWTKGVTPLTPEQFRYNNEDVIHAPYLAHQGWYDITKAFDGKDNLLCGAATAGNMLHWWFDQNKEEIENYLKKYPEKQKIIFNNQELFDLKAAIDTKDSQTNSQLFNYFRDKAFPNLSARQLGVMPDLVLDMFINGYYLNVFKTQSTDVNRPYQDKDKRGGIFDAVFTRGDQTTLLTARHDLKNKGLNDISTIIKQELTEGRALALSHTYANVSISHVINLWGADFNAEGNLEAIYVTDSDANASIGMKKYFVGINAHGHVAISAKKIEGENIGAQVLGLFTLSSGQEIWEQLSLEHHHHHH"
  Units of measure: "ng/µL"
  Obs value: 850
